TARGET: T1, human GITR (amino acids M1-V241, NCBI Accession #NP_004186.1) expressed on cells (human, UniProt Q9Y5U5 26-241)
T1 sequence: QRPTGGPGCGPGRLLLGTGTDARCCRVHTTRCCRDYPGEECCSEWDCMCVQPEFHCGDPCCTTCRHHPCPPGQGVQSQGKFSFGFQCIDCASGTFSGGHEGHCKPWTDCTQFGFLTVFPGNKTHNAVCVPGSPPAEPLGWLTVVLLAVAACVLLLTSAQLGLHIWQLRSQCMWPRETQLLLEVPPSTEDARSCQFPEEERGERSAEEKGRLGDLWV
METHOD: cell-based or functional assay
Catalogue of fold activation, T-cell proliferation, 33 nM, FcgR anchored, donor 2 readings, one per entry.
Expressed in fold, but write only the number.

For the binder H4H14508P (antibody, human IgG4, V domains shown, human IgG4 (H4H)) VH: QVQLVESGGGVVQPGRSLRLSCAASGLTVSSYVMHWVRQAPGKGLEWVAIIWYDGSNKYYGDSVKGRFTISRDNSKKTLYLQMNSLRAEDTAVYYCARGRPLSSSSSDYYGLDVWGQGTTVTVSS VL: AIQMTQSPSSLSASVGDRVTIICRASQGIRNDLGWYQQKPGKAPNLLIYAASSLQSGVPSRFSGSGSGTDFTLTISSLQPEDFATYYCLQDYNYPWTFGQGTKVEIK , what fold activation, T-cell proliferation, 33 nM, FcgR anchored, donor 2 is on record?
0.7

// query: H4H14521P (antibody, human IgG4, V domains shown, human IgG4 (H4H)) VH: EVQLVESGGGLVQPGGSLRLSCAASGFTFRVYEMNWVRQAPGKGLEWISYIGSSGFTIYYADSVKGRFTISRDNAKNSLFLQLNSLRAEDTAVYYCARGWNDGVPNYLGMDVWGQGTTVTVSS VL: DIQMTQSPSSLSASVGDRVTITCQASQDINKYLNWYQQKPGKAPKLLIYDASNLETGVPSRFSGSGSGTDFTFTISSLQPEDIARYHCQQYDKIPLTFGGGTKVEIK
1.1

// query: H4H14516P (antibody, human IgG4, V domains shown, human IgG4 (H4H)) VH: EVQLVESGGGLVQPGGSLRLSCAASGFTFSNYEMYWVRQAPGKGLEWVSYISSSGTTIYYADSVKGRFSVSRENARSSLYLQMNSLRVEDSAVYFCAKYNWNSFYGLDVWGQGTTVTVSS VL: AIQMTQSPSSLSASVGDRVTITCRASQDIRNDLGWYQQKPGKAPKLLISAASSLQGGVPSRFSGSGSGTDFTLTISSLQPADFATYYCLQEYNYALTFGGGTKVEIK
0.9
